# credit: patent US9481676B2

Target or test system: human recombinant dopamine D2L receptor (Homo sapiens)
Construct: expressed in transfected cells; host or cells: CHO cells
Sequence (P14416 whole entry): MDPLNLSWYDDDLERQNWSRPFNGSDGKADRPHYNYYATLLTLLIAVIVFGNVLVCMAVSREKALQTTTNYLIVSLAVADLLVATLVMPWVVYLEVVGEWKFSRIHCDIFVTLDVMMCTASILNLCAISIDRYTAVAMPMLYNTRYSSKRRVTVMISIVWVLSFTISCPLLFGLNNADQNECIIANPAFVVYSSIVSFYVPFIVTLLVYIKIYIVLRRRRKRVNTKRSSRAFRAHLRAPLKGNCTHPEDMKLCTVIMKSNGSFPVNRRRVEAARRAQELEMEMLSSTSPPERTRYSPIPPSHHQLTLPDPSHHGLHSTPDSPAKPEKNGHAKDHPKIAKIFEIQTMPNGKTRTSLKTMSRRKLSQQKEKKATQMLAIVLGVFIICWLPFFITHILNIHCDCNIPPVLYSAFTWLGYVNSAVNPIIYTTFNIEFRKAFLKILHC
Test description: Dopamine D2L radioligand binding ([3H]Spiperone)
Condition context: compound at 1 μM; read-out: Dopamine (1 μM) D2L, percent inhibition of specific binding
inhibition at 1 µM: recorded values

{"Compound": "COc1ccc(/C(C)=C/n2c3c(c4cc(C)ccc42)CCN(C)CC3)cc1F", "inhibition at 1 µM, %": 23}
{"Compound": "CN1CCc2c(n(CCc3cncc(Cl)c3)c3ccc(Cl)cc23)CC1", "inhibition at 1 µM, %": 35}
{"Compound": "COc1ccc(/C=C/n2c3c(c4cc(Cl)ccc42)CCN(C)CC3)cc1OC", "inhibition at 1 µM, %": 37}
{"Compound": "Cc1ccc2c(c1)c1c(n2CC(=O)N2CCCC2)CCN(C)CC1", "inhibition at 1 µM, %": -6}
{"Compound": "C/C(=C\\n1c2c(c3cc(Cl)ccc31)CCN(C)CC2)c1ccc(Cl)c(Cl)c1", "inhibition at 1 µM, %": 33}
{"Compound": "C/C(=C/n1c2c(c3cc(Cl)ccc31)CCN(C)CC2)c1ccccc1F", "inhibition at 1 µM, %": 69}
{"Compound": "Cc1ccc2c(c1)c1c(n2CC(O)c2ccc(C)nc2)CCN(C)CC1 (stereo not shown)", "inhibition at 1 µM, %": 4}

* * *

Target or test system: human recombinant histamine H2 receptor (Homo sapiens)
Construct: expressed in transfected cells; host or cells: CHO-K1 cells
Sequence (P25021 whole entry): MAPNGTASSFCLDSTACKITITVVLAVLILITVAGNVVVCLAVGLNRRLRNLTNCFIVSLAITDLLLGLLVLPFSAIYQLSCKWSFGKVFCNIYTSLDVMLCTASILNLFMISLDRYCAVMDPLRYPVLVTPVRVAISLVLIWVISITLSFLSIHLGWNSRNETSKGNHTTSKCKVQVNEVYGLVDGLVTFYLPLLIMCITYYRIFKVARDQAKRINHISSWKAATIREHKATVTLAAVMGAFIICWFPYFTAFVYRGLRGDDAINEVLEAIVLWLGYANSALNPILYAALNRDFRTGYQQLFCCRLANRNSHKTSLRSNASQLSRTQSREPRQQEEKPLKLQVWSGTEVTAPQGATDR
Test description: Histamine H2 radioligand binding ([125I]Aminopotentidine)
Condition context: compound at 1 μM; read-out: Histamine Binding (1 μM) H2, percent inhibition of specific binding
Lab note: compare inhibition at 1 µM against 50%. Equal or greater, write yes. Smaller, write no.

{"Compound": "Cc1ccc(CCn2c3c(c4cc(Cl)ccc42)CCN(C)CC3)cc1", "Target or test system": "human recombinant histamine H2 receptor (Homo sapiens)", "Assigned class": "yes"}
{"Compound": "C/C(=C\\n1c2c(c3cc(Cl)ccc31)CCN(C)CC2)c1ccccc1Cl", "Target or test system": "human recombinant histamine H2 receptor (Homo sapiens)", "Assigned class": "yes"}
{"Compound": "COc1ccc(/C=C/n2c3c(c4cc(Cl)ccc42)CCN(C)CC3)cc1F", "Target or test system": "human recombinant histamine H2 receptor (Homo sapiens)", "Assigned class": "yes"}
{"Compound": "Cc1ccc2c(c1)c1c(n2CC(=O)NC2CCCCC2)CCN(C)CC1", "Target or test system": "human recombinant histamine H2 receptor (Homo sapiens)", "Assigned class": "no"}
{"Compound": "CC1CCN(C(=O)Cn2c3c(c4cc(Cl)ccc42)CCN(C)CC3)CC1", "Target or test system": "human recombinant histamine H2 receptor (Homo sapiens)", "Assigned class": "no"}
{"Compound": "COc1ccc(C(O)Cn2c3c(c4cc(Cl)ccc42)CCN(C)CC3)cc1OC (stereo not drawn)", "Target or test system": "human recombinant histamine H2 receptor (Homo sapiens)", "Assigned class": "no"}
{"Compound": "Cc1ccc2c(c1)c1c(n2CC(=O)N2CCCC2)CCN(C)CC1", "Target or test system": "human recombinant histamine H2 receptor (Homo sapiens)", "Assigned class": "no"}
{"Compound": "COc1ccc(/C=C/n2c3c(c4cc(Cl)ccc42)CCN(C)CC3)cc1OC", "Target or test system": "human recombinant histamine H2 receptor (Homo sapiens)", "Assigned class": "no"}
{"Compound": "Cc1ccc2c(c1)c1c(n2CCc2ccncc2)CCN(C)CC1", "Target or test system": "human recombinant histamine H2 receptor (Homo sapiens)", "Assigned class": "yes"}
{"Compound": "Cc1ccc2c(c1)c1c(n2CC(=O)N2CCNCC2)CCN(C)CC1", "Target or test system": "human recombinant histamine H2 receptor (Homo sapiens)", "Assigned class": "no"}
{"Compound": "Cc1ccc2c(c1)c1c(n2CC(=O)N2CCC(C)CC2)CCN(C)CC1", "Target or test system": "human recombinant histamine H2 receptor (Homo sapiens)", "Assigned class": "no"}
{"Compound": "CN1CCc2c(n(CCc3ccc(Cl)cc3)c3ccc(Cl)cc23)CC1", "Target or test system": "human recombinant histamine H2 receptor (Homo sapiens)", "Assigned class": "yes"}
{"Compound": "C/C(=C\\n1c2c(c3cc(Cl)ccc31)CCN(C)CC2)c1ccc(F)c(F)c1", "Target or test system": "human recombinant histamine H2 receptor (Homo sapiens)", "Assigned class": "yes"}
{"Compound": "Cc1ccc2c(c1)c1c(n2CC(C)(O)c2ccc(Cl)cc2)CCN(C)CC1 (stereo not drawn)", "Target or test system": "human recombinant histamine H2 receptor (Homo sapiens)", "Assigned class": "yes"}
{"Compound": "Cc1ccc2c(c1)c1c(n2/C=C/c2ccc(F)cc2)CCN(C)CC1", "Target or test system": "human recombinant histamine H2 receptor (Homo sapiens)", "Assigned class": "yes"}
{"Compound": "CN1CCc2c(n(CC(=O)N3CCOCC3)c3ccc(Cl)cc23)CC1", "Target or test system": "human recombinant histamine H2 receptor (Homo sapiens)", "Assigned class": "no"}
{"Compound": "COc1ccc(/C=C/n2c3c(c4cc(C)ccc42)CCN(C)CC3)cc1F", "Target or test system": "human recombinant histamine H2 receptor (Homo sapiens)", "Assigned class": "yes"}
{"Compound": "CN1CCc2c(n(CC(=O)Nc3ccc(F)cc3)c3ccc(Cl)cc23)CC1", "Target or test system": "human recombinant histamine H2 receptor (Homo sapiens)", "Assigned class": "no"}
{"Compound": "C/C(=C/n1c2c(c3cc(C)ccc31)CCN(C)CC2)c1ccc(Cl)cc1Cl", "Target or test system": "human recombinant histamine H2 receptor (Homo sapiens)", "Assigned class": "yes"}
{"Compound": "C/C(=C/n1c2c(c3cc(Cl)ccc31)CCN(C)CC2)c1ccccc1F", "Target or test system": "human recombinant histamine H2 receptor (Homo sapiens)", "Assigned class": "yes"}
{"Compound": "COc1ccc(C#Cn2c3c(c4cc(Cl)ccc42)CCN(C)CC3)cc1F", "Target or test system": "human recombinant histamine H2 receptor (Homo sapiens)", "Assigned class": "yes"}
{"Compound": "CN1CCc2c(n(CC(=O)N(C)C3CCCCC3)c3ccc(Cl)cc23)CC1", "Target or test system": "human recombinant histamine H2 receptor (Homo sapiens)", "Assigned class": "no"}
{"Compound": "CN1CCc2c(n(C#Cc3ccc(Cl)cc3)c3ccc(Cl)cc23)CC1", "Target or test system": "human recombinant histamine H2 receptor (Homo sapiens)", "Assigned class": "yes"}
{"Compound": "Cc1ccc2c(c1)c1c(n2CC(O)c2ccc(Cl)cc2)CCN(C)CC1 (stereo not drawn)", "Target or test system": "human recombinant histamine H2 receptor (Homo sapiens)", "Assigned class": "yes"}

* * *

# inhibition at 1 µM per entry
Target or test system: human recombinant histamine H2 receptor (Homo sapiens)
Construct: expressed in transfected cells; host or cells: CHO-K1 cells
Test description: Histamine H2 radioligand binding ([125I]Aminopotentidine)
Condition context: compound at 1 μM; read-out: Histamine Binding (1 μM) H2, percent inhibition of specific binding

{"Structure smiles": "COc1ccc(/C(C)=C/n2c3c(c4cc(C)ccc42)CCN(C)CC3)cc1F", "Target or test system": "human recombinant histamine H2 receptor (Homo sapiens)", "inhibition at 1 µM": "88%"}
{"Structure smiles": "C/C(=C\\n1c2c(c3cc(C)ccc31)CCN(C)CC2)c1ccc(Cl)c(Cl)c1", "Target or test system": "human recombinant histamine H2 receptor (Homo sapiens)", "inhibition at 1 µM": "95%"}
{"Structure smiles": "C/C(=C/n1c2c(c3cc(C)ccc31)CCN(C)CC2)c1ccccc1F", "Target or test system": "human recombinant histamine H2 receptor (Homo sapiens)", "inhibition at 1 µM": "87%"}
{"Structure smiles": "C/C(=C/n1c2c(c3cc(Cl)ccc31)CCN(C)CC2)c1cccc(F)c1", "Target or test system": "human recombinant histamine H2 receptor (Homo sapiens)", "inhibition at 1 µM": "97%"}
{"Structure smiles": "CN1CCc2c(n(CC(=O)N3CCCCC3)c3ccc(Cl)cc23)CC1", "Target or test system": "human recombinant histamine H2 receptor (Homo sapiens)", "inhibition at 1 µM": "1%"}

* * *

Target or test system: human recombinant adrenergic α2B receptor (Homo sapiens)
Construct: expressed in transfected cells; host or cells: CHO-K1 cells
Sequence (P18089 1-450): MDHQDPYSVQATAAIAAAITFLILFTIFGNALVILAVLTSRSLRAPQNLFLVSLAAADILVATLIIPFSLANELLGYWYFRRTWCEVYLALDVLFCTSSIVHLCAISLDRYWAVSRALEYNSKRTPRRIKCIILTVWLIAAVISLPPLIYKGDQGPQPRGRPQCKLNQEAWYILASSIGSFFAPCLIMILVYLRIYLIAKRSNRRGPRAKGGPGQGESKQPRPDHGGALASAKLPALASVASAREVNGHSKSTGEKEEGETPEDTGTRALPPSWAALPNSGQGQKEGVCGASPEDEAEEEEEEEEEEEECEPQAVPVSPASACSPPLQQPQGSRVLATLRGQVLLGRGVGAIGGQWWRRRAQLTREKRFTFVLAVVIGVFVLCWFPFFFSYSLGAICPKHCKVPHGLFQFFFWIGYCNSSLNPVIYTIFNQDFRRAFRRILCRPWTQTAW
Test description: Adrenergic alpha2B radioligand binding ([3H]Rauwolscine)
Condition context: compound at 1 μM; read-out: Adrenergic (1 μM) α2B, percent inhibition of specific binding
Endpoint label: inhibition at 1 µM

{"Molecule": "Cc1ccc2c(c1)c1c(n2C(=O)Cc2ccc(F)cc2)CCN(C)CC1 [Compound No. 285]", "Endpoint label": "inhibition at 1 µM", "Value observed": "75%"}
{"Molecule": "CN1CCc2c(n(CCc3ccncc3)c3ccc(Cl)cc23)CC1 [Compound No. 5]", "Endpoint label": "inhibition at 1 µM", "Value observed": "100%"}
{"Molecule": "C/C(=C\\n1c2c(c3cc(C)ccc31)CCN(C)CC2)c1ccc(F)cc1 [Compound No. 34]", "Endpoint label": "inhibition at 1 µM", "Value observed": "110%"}
{"Molecule": "CN1CCc2c(n(C#Cc3ccc(F)cc3)c3ccc(Cl)cc23)CC1 [Compound No. 281]", "Endpoint label": "inhibition at 1 µM", "Value observed": "99%"}
{"Molecule": "Cc1ccc2c(c1)c1c(n2CC(=O)N2CCOCC2)CCN(C)CC1 [Compound No. 38]", "Endpoint label": "inhibition at 1 µM", "Value observed": "83%"}
{"Molecule": "Cc1ccc2c(c1)c1c(n2CC(=O)Nc2ccccc2)CCN(C)CC1 [Compound No. 79]", "Endpoint label": "inhibition at 1 µM", "Value observed": "20%"}
{"Molecule": "Cc1ccc(C(O)Cn2c3c(c4cc(Cl)ccc42)CCN(C)CC3)cn1 (stereo not shown) [Compound No. 7]", "Endpoint label": "inhibition at 1 µM", "Value observed": "101%"}
{"Molecule": "CN1CCc2c(n(CCc3ccccc3F)c3ccccc23)CC1 [Compound No. 237]", "Endpoint label": "inhibition at 1 µM", "Value observed": "93%"}
{"Molecule": "C/C(=C\\n1c2c(c3cc(Cl)ccc31)CCN(C)CC2)c1ccc(Cl)cc1 [Compound No. 36]", "Endpoint label": "inhibition at 1 µM", "Value observed": "101%"}
{"Molecule": "COc1ccc(/C=C/n2c3c(c4cc(Cl)ccc42)CCN(C)CC3)cc1OC [Compound No. 226]", "Endpoint label": "inhibition at 1 µM", "Value observed": "102%"}
{"Molecule": "Cc1ccc2c(c1)c1c(n2CC(O)c2ccc(Cl)cc2)CCN(C)CC1 (stereo not shown) [Compound No. 17]", "Endpoint label": "inhibition at 1 µM", "Value observed": "99%"}
{"Molecule": "Cc1ccc2c(c1)c1c(n2CCc2ccc(C(=O)O)nc2)CCN(C)CC1 [Compound No. 11]", "Endpoint label": "inhibition at 1 µM", "Value observed": "3%"}
{"Molecule": "Cc1ccc2c(c1)c1c(n2CCc2ccccn2)CCN(C)CC1 [Compound No. 9]", "Endpoint label": "inhibition at 1 µM", "Value observed": "90%"}
{"Molecule": "Cc1ccc2c(c1)c1c(n2CCc2ccccc2)CCN(C)CC1 [Compound No. 62]", "Endpoint label": "inhibition at 1 µM", "Value observed": "98%"}
{"Molecule": "C/C(=C\\n1c2c(c3cc(Cl)ccc31)CCN(C)CC2)c1ccc(F)cc1 [Compound No. 2]", "Endpoint label": "inhibition at 1 µM", "Value observed": "111%"}
{"Molecule": "Cc1ccc2c(c1)c1c(n2CC(C)(O)c2ccc(Cl)cc2)CCN(C)CC1 (stereo not shown) [Compound No. 15]", "Endpoint label": "inhibition at 1 µM", "Value observed": "104%"}
{"Molecule": "Cc1ccc2c(c1)c1c(n2CC(=O)N2CCCC2)CCN(C)CC1 [Compound No. 45]", "Endpoint label": "inhibition at 1 µM", "Value observed": "9%"}
{"Molecule": "CN1CCc2c(n(CCc3ccc(C(F)(F)F)nc3)c3ccc(Cl)cc23)CC1 [Compound No. 1]", "Endpoint label": "inhibition at 1 µM", "Value observed": "107%"}
{"Molecule": "CN1CCc2c(n(CCc3ccccn3)c3ccc(Cl)cc23)CC1 [Compound No. 8]", "Endpoint label": "inhibition at 1 µM", "Value observed": "103%"}
{"Molecule": "CN1CCc2c(n(C#Cc3ccc(Cl)cc3)c3ccc(Cl)cc23)CC1 [Compound No. 282]", "Endpoint label": "inhibition at 1 µM", "Value observed": "102%"}
{"Molecule": "Cc1ccc2c(c1)c1c(n2CCc2ccc(Cl)cc2)CCN(C)CC1 [Compound No. 28]", "Endpoint label": "inhibition at 1 µM", "Value observed": "103%"}
{"Molecule": "CN1CCc2c(n(CC(=O)Nc3ccc(F)cc3)c3ccc(Cl)cc23)CC1 [Compound No. 37]", "Endpoint label": "inhibition at 1 µM", "Value observed": "70%"}
{"Molecule": "C/C(=C\\n1c2c(c3cc(C)ccc31)CCN(C)CC2)c1ccc(Cl)cc1 [Compound No. 33]", "Endpoint label": "inhibition at 1 µM", "Value observed": "103%"}
{"Molecule": "Cc1ccc2c(c1)c1c(n2/C=C/c2ccc(Cl)cc2)CCN(C)CC1 [Compound No. 235]", "Endpoint label": "inhibition at 1 µM", "Value observed": "98%"}
{"Molecule": "Cc1ccc2c(c1)c1c(n2CC(O)c2ccc(F)cc2F)CCN(C)CC1 (stereo not shown) [Compound No. 59]", "Endpoint label": "inhibition at 1 µM", "Value observed": "9%"}
